Taken from ChEMBL document CHEMBL1152921.

# System: Rattus norvegicus
# assay: Antidiuretic activity in fasted and hydrated Wistar rat assessed as compound potency to yield antidiuresis time of 200 mins required for urinary excretion of half the water load at 0.001 to 100 nmol/kg, sc administered immediately after water loading by modified Burn test relative to 1-deamino-8-D-arginine vasopressin
# Format: functional, Urine
measured-quantity: Activity (%)
Give just the numeric value; % need not be written.

Item under review: CC(C)[C@@H]1NC(=O)[C@H](Cc2ccccc2)NC(=O)[C@H](C(c2ccccc2)c2ccccc2)NC(=O)CCSSC[C@@H](C(=O)N2CCC[C@H]2C(=O)N[C@H](CCCNC(=N)N)C(=O)NCC(N)=O)NC(=O)[C@H](CC(N)=O)NC1=O (stereo in doubt; form 2) . Reported Activity?
150

Item under review: N=C(N)NCCC[C@@H](NC(=O)[C@@H]1CCCN1C(=O)[C@@H]1CSSC[C@H](N)C(=O)N[C@@H](C(c2ccccc2)c2ccccc2)C(=O)N[C@@H](Cc2ccccc2)C(=O)N[C@@H](CCC(N)=O)C(=O)N[C@@H](CC(N)=O)C(=O)N1)C(=O)NCC(N)=O . Reported Activity?
1.2
